# protocol-details: Cell viability assay (AlamarBlue) in HepAD38 cells
# experimental-parameters: human
Listed here are compounds together with their documented CC50 at 6 days.

- compound: "COCC1(N(C)C(=O)c2n[nH]c3c2CN(C(=O)c2cc4c(Cl)ccc(F)c4[nH]2)CC3)CC1 [Example 306]"
  CC50 at 6 days: "> 10 µM"

### Prompt State its CC50 at 6 days: CN(CCO)C(=O)c1n[nH]c2c1CN(C(=O)c1cc3cc(F)c(F)cc3[nH]1)CC2 [Example 7]
### Response > 10 µM

### Prompt Tell us which CC50 at 6 days value is on record for CN(C(=O)c1n[nH]c2c1CN(C(=O)c1cc3ccccc3[nH]1)CC2)C1CCOCC1 [Example 199]
### Response > 10 µM

### Prompt Determine its reported CC50 at 6 days: CC(C)OC(=O)[C@H](C)NP(=O)(OCCN(C)C(=O)c1n[nH]c2c1CN(C(=O)c1cc3ccccc3[nH]1)CC2)Oc1ccccc1 (stereo partly drawn) [Example 71]
### Response > 32 µM

### Prompt For O=C(c1cc2ccccc2[nH]1)N1CCc2[nH]nc(C(=O)N3CC[C@H](F)C3)c2C1 [Example 224] , write its CC50 at 6 days.
### Response > 10 µM

### Prompt Could you please provide reported CC50 at 6 days for CCOCC1(N(C)C(=O)c2[nH]nc3c2CN(C(=O)c2cc4c(C)cc(F)cc4[nH]2)CC3)CC1 [Example 366] ? Thanks!
### Response > 10 µM

### Prompt Entry CN(C(=O)c1n[nH]c2c1CN(C(=O)c1cc3ccccc3[nH]1)CC2)[C@@H]1CCCC[C@H]1O (racemic) [Example 192] needs its CC50 at 6 days filled in; supply it.
### Response > 10 µM

### Prompt Indicate its recorded CC50 at 6 days; the compound in question is C=Cc1scnc1-c1n[nH]c2c1CN(C(=O)c1cc3ccccc3[nH]1)CC2 [Example 317]
### Response > 10 µM

### Prompt In one line, give reported CC50 at 6 days of the entry CC(C)OC(=O)[C@H](C)NP(=O)(OCCON(C)C(=O)c1n[nH]c2c1CN(C(=O)c1cc3ccccc3[nH]1)CC2)Oc1ccccc1 (stereo partly drawn) [Example 64] .
### Response > 32 µM

* * *

# protocol-details: Cell viability assay (AlamarBlue) in HepAD38 cells
# experimental-parameters: human
assay-metric: CC50 at 6 days

- compound: "O=C(c1cc2c(F)cc(F)cc2[nH]1)N1CCc2[nH]nc(C3CCCO3)c2C1 (stereo not shown) [Example 339]"
  assay-result: "> 10 µM"
- compound: "CNC1(COC(=O)c2n[nH]c3c2CN(C(=O)c2cc4ccccc4[nH]2)CC3)CC1 [Example 32]"
  assay-result: "> 100 µM"
- compound: "O=C(c1cc2c(F)cc(F)cc2[nH]1)N1CCc2[nH]nc(C34CC(C3)C4)c2C1 [Example 333]"
  assay-result: "> 10 µM"
- compound: "O=C(c1cc2c(Cl)cccc2[nH]1)N1CCc2[nH]nc(C(=O)N3CCC(F)(F)C3)c2C1 [Example 230]"
  assay-result: "> 10 µM"
- compound: "CN(C(=O)c1n[nH]c2c1CN(C(=O)c1cc3ccccc3[nH]1)CC2)C1(C(F)(F)F)CC1 [Example 310]"
  assay-result: "> 10 µM"
- compound: "O=C(c1cc2ccc(F)c(F)c2[nH]1)N1CCc2n[nH]c(C3CCC3)c2C1 [Example 389]"
  assay-result: "> 10 µM"

### Prompt Quick one: give measured CC50 at 6 days for O=C(c1cc2c(Cl)cccc2[nH]1)N1CCc2n[nH]c(-c3cscn3)c2C1 [Example 19]
### Response > 10 µM

### Prompt Check the records and state CC50 at 6 days for CCc1cc(F)cc2[nH]c(C(=O)N3CCc4[nH]nc(C(=O)N(C)C5(CO)CC5)c4C3)cc12 [Example 271]
### Response > 10 µM

### Prompt Find the measured CC50 at 6 days of O=C(c1cc2ccccc2[nH]1)N1CCc2n[nH]c(C(=O)N3CC(F)(F)CC34CC4)c2C1 [Example 401] and report it.
### Response > 10 µM

### Prompt Complete the entry with CC50 at 6 days for CCc1cccc2[nH]c(C(=O)N3CCc4n[nH]c(-c5cscn5)c4C3)cc12 [Example 18]
### Response 7.3 µM

### Prompt Give CC50 at 6 days for the following compound: CCOCC1(N(C)C(=O)c2[nH]nc3c2CN(C(=O)c2cc4cccc(F)c4[nH]2)CC3)CC1 [Example 367]
### Response > 10 µM

### Prompt Answer with the recorded CC50 at 6 days of O=C(c1cc2c(F)cccc2[nH]1)N1CCc2[nH]ncc2C1 [Example 114] only.
### Response > 100 µM

Recorded values, source patent US11236087B2.
